// provenance: patent US12358885B2

testedTarget: 5-HT7 receptor (Homo sapiens, UniProt P34969)
Construct: host or cells: HEK-293 cells (membrane preparation)
Sequence (P34969 whole entry): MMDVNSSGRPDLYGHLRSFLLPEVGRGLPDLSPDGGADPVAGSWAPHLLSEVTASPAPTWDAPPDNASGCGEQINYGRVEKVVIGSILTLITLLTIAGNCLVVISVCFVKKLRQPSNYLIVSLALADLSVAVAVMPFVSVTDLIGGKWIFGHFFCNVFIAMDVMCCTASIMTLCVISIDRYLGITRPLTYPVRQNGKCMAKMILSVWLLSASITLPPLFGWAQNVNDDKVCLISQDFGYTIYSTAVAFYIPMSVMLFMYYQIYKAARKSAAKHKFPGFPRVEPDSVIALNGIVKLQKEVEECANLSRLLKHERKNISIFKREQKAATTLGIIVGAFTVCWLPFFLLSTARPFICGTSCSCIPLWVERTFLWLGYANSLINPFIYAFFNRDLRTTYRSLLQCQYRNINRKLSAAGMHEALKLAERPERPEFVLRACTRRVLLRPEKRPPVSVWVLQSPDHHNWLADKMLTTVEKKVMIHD
methodNotes: Eurofins Cerep competition binding assay at 5-HT7 receptor
appliedConditions: 10 μM test ligand; [3H]LSD; recombinant receptor in HEK-293 cells; read-out: HT7, percent of control-specific binding
Listed next: entries and their corresponding inhibition at 10 µM.
Write the answer as a number in %, unit excluded.

Some entries whose results are on file:
State, in one line, measured inhibition at 10 µM of O=C(CCc1cc2c(cc1Br)OCO2)N1CCCC1
0

In one line, give reported inhibition at 10 µM of the entry c1cc2c(cc1CCCN1CCCC1)OCO2 .
15

Using known records, supply inhibition at 10 µM for Brc1cc2c(cc1CCCN1CCCC1)OCO2
40

Report inhibition at 10 µM, nothing else, for this compound: O=C(CCc1ccc2c(c1)OCO2)N1CCCC1
2

Report inhibition at 10 µM for C/C(=C\c1ccc2c(c1)OCO2)CN1CCCC1
68

New cases:
Please supply the value of reported inhibition at 10 µM for the item CCN(CC)C/C=C/c1ccc2c(c1)OCO2
18

----------
testedTarget: 5-HT1A receptor (Homo sapiens)
Construct: purchased Perkin Elmer 6110501400UA
Sequence (P08908 1-422): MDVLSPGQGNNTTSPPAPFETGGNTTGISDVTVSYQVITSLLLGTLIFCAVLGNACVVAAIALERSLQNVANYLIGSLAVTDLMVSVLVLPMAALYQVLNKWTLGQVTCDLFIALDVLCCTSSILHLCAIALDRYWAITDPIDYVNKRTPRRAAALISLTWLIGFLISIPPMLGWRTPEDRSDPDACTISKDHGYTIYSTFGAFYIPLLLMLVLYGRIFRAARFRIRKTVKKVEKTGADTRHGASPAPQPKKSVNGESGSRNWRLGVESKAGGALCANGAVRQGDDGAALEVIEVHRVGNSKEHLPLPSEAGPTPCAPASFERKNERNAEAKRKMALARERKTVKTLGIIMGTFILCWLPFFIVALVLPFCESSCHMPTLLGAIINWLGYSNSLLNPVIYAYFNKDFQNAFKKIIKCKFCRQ
methodNotes: Eurofins Cerep competition binding assay at 5-HT1A receptor
appliedConditions: 10 μM test ligand; [3H]8-OH-DPAT; recombinant receptor in HEK-293 cells; read-out: HT1A, percent of control-specific binding
Reported inhibition at 10 µM is given for each of the following molecules.

State, in one line, measured inhibition at 10 µM of Brc1cc2c(cc1CCCN1CCCC1)OCO2 [C(IV)]
92%

Provide only the value of recorded inhibition at 10 µM for c1cc2c(cc1CCCN1CCCC1)OCO2 [C(III)]
72%

Specify reported inhibition at 10 µM for the molecule shown: O=C(CCc1cc2c(cc1Br)OCO2)N1CCCC1 [F(IV)]
37%

Dear colleague, please send me the reported inhibition at 10 µM for CCN(CC)C/C=C/c1ccc2c(c1)OCO2 [D(I)] when you can.
49%

Please list inhibition at 10 µM recorded for the molecule O=C(CCc1ccc2c(c1)OCO2)N1CCCC1 [F(III)]
0%

Others:
# return recorded inhibition at 10 µM for input C/C(=C\c1ccc2c(c1)OCO2)CN1CCCC1 [B(II)]
79%

----------
# Lookup of reported inhibition at 10 µM keyed by entry
testedTarget: dopamine transporter (DAT) (Homo sapiens, UniProt Q01959)
Construct: host or cells: CHO cells (membrane preparation)
Sequence (Q01959 whole entry): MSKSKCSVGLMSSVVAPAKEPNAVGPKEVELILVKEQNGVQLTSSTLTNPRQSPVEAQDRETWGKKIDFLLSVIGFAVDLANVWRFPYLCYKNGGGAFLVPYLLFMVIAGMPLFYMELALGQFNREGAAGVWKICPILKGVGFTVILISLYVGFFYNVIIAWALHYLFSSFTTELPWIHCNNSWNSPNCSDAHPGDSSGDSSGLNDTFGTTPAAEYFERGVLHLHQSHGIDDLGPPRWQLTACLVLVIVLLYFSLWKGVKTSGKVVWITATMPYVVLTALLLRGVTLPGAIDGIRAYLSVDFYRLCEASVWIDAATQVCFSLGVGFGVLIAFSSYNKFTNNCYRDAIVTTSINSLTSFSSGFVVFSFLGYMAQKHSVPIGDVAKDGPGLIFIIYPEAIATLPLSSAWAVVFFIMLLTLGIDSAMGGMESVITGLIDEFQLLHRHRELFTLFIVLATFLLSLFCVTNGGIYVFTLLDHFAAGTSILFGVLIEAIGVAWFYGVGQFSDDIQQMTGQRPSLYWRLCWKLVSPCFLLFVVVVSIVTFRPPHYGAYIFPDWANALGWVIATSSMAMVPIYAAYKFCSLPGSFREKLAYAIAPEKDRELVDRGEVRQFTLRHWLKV
methodNotes: Eurofins Cerep competition binding assay at dopamine transporter
appliedConditions: read-out: DAT, percent of control-specific binding
Express the result in % but write the number alone.

These recorded examples may help you get a feel for the data.
Entry Brc1cc2c(cc1CCCN1CCCC1)OCO2 needs its inhibition at 10 µM filled in; supply it.
10

Hello, please tell me recorded inhibition at 10 µM for this one: C/C(=C\c1ccc2c(c1)OCO2)CN1CCCC1
69

Tell me inhibition at 10 µM reported for O=C(CCc1ccc2c(c1)OCO2)N1CCCC1
0

Specify reported inhibition at 10 µM for the compound shown: c1cc2c(cc1CCCN1CCCC1)OCO2
27

// fetch inhibition at 10 µM given entry CCN(CC)C/C=C/c1ccc2c(c1)OCO2
39

Next compound, inhibition at 10 µM to be filled in.
Consider the compound O=C(CCc1cc2c(cc1Br)OCO2)N1CCCC1 . State its measured inhibition at 10 µM.
0

----------
Overview of recorded inhibition at 10 µM for various compounds
testedTarget: D3 receptor (Homo sapiens, UniProt P35462)
Construct: host or cells: CHO cells (membrane preparation)
Sequence (P35462 whole entry): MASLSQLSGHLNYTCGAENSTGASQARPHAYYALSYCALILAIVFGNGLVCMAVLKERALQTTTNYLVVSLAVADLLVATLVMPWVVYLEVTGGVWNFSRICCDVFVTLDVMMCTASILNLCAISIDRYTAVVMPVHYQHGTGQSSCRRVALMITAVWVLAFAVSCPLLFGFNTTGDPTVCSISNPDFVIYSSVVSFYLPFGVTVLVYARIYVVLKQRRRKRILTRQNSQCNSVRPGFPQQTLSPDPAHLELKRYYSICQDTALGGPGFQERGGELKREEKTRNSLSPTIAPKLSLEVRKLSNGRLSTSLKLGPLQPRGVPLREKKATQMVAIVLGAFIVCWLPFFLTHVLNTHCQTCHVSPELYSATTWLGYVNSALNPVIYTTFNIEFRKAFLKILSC
methodNotes: Eurofins Cerep competition binding assay at D3 receptor
appliedConditions: 10 μM test ligand; [3H]methylspiperone; recombinant receptor in CHO cells; read-out: D3, percent of control-specific binding
// return numeric value only (unit: %, not printed)

Tell me its inhibition at 10 µM given COc1ccc2[nH]cc(CCNC(C)=O)c2c1 [Melatonin] as the entry.
2

Retrieve inhibition at 10 µM measured for CC(NC(C)(C)C)C(=O)c1cccc(Cl)c1 (stereo not shown) [Bupropion] and print it.
3

Please look at this compound and report its inhibition at 10 µM: N[C@@H](Cc1c[nH]c2ccccc12)C(=O)O [tryptophan]
-23

Would you kindly look at the next entry?
Indicate the recorded inhibition at 10 µM value for this compound: COc1cc(CCN)cc(OC)c1OC [mescaline, 3,4,5 trimethoxyphenethylamine]
-13

----------
Examples of compounds with documented inhibition at 10 µM follow.
testedTarget: 5-HT2C receptor (Homo sapiens, UniProt P28335)
Construct: host or cells: HEK-293 cells (membrane preparation)
Sequence (P28335 33-458): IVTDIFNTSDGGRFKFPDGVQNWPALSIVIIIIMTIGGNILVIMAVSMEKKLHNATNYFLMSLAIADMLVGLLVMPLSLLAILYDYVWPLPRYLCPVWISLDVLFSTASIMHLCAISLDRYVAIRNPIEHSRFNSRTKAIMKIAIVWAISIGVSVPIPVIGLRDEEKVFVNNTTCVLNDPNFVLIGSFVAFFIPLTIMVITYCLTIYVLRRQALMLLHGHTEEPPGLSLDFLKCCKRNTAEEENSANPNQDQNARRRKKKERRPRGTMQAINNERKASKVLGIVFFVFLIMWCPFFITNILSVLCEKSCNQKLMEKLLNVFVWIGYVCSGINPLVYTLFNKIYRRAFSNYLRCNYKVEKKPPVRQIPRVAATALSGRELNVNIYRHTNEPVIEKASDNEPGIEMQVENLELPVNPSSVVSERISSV
methodNotes: Eurofins Cerep competition binding assay at 5-HT2C receptor
appliedConditions: 10 μM test ligand; [125I](±)DOI; recombinant receptor in HEK-293 cells; read-out: HT2C, percent of control-specific binding
Please give a number only; it is taken to be in %.

Recall and state the measured inhibition at 10 µM for O=C(CCc1ccc2c(c1)OCO2)N1CCCC1 .
5

Return inhibition at 10 µM for the following compound: Brc1cc2c(cc1CCCN1CCCC1)OCO2
65

----------
testedTarget: 5-HT1A receptor (Homo sapiens, UniProt P08908)
Construct: purchased Perkin Elmer 6110501400UA
Sequence (P08908 1-422): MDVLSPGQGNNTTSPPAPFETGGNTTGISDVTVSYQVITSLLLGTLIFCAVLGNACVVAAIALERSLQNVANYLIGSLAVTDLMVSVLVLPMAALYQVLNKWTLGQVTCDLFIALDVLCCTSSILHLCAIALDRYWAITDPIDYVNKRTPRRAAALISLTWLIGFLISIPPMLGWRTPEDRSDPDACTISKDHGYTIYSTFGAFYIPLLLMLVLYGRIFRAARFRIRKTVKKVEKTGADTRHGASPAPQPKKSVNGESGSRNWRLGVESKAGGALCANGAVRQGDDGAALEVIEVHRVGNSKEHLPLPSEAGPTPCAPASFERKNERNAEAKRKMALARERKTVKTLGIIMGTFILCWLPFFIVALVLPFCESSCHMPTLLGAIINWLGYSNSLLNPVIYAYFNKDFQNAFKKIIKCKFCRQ
methodNotes: Eurofins Cerep competition binding assay at 5-HT1A receptor
appliedConditions: 10 μM test ligand; [3H]8-OH-DPAT; recombinant receptor in HEK-293 cells
Reported HT1A, percent of control-specific binding by item:
The figure you give is taken to be in %; do not add the unit.

// solved cases for HT1A, percent of control-specific binding follow
Provide HT1A, percent of control-specific binding, system 5-HT1A receptor (Homo sapiens, UniProt P08908), entry CNC(C)Cc1ccc2c(c1)OCO2 (stereo not shown) [MDMA, reference compound]
68

State HT1A, percent of control-specific binding on 5-HT1A receptor (Homo sapiens, UniProt P08908). Entry: CCOc1c(OC)cc(CCN)cc1OC [escaline]
44

Write down the reported HT1A, percent of control-specific binding (system: 5-HT1A receptor (Homo sapiens, UniProt P08908)) of COc1cc(CCN)c(OC)cc1Br [2C-B, reference compound]
96

Now look at this entry.
Name the value of HT1A, percent of control-specific binding reported for COc1cc(CC(C)N)c(OC)cc1Br (stereo not shown) [DOB, reference compound] when tested on 5-HT1A receptor (Homo sapiens, UniProt P08908).
75

----------
testedTarget: D3 receptor (Homo sapiens, UniProt P35462)
Construct: host or cells: CHO cells (membrane preparation)
methodNotes: Eurofins Cerep competition binding assay at D3 receptor
appliedConditions: 10 μM test ligand; [3H]methylspiperone; recombinant receptor in CHO cells; read-out: D3, percent of control-specific binding
// returns label 0 unless inhibition at 10 µM is strictly below 60%, in which case label 1

Lab note: inhibition at 10 µM threshold 60%. Does this compound come in strictly under it? N#Cc1ccc2[nH]cc(CCCCN3CCN(c4ccc5oc(C(N)=O)cc5c4)CC3)c2c1
label 0

Lab log: compare recorded inhibition at 10 µM with 60%; is it strictly lower for Cc1ccc(Sc2ccccc2N2CCNCC2)c(C)c1 ?
label 0

Please let me know if COc1ccc2cccc(CCNC(C)=O)c2c1 shows inhibition at 10 µM below 60%.
label 1

Identify whether the compound CN(C)CCCN1c2ccccc2CCc2ccccc21 records inhibition at 10 µM below 60%.
label 0

For this compound, is inhibition at 10 µM lower than 60%? NCCc1c[nH]c2ccc(O)cc12
label 0

Problem: For the compound c1cc2c(cc1CCCN1CCCC1)OCO2 , is inhibition at 10 µM under 60%?
label 1
